- TARGET_UNDER_TEST: human JAK2 kinase domain (JH1) (Homo sapiens, UniProt O60674)
- Construct: recombinantly generated catalytic kinase (also known as JH1) domain of human JAK1, JAK2, JAK3 and TYK2
- Sequence (O60674 849-1124 limits assumed): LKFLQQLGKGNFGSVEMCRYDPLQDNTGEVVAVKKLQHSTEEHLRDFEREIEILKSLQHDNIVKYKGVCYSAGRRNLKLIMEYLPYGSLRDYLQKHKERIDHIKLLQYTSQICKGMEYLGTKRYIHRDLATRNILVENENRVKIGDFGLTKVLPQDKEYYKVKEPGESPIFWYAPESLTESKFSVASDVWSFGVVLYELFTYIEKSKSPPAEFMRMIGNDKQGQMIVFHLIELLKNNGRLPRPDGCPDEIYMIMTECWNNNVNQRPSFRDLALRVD
- ASSAY_DETAILS: JH1 biochemical assay for JAK2 (ADP-Glo kinase assay, recombinant JH1 catalytic domain, JAK3-974 peptide, 15 μM ATP)
- REPORTED_CONDITIONS: JAK2 JH1, ADP-Glo
Counter-ions that a name gives are not always drawn.
Exercise: for every item that follows, state its recorded IC50.

Quote IC50 reported for C[C@@H]1CN(c2nc(-c3cnn(CC4(C#N)CC4)c3)cn3ncc(F)c23)C(=O)[C@]1(C#N)C1CC1 please.
< 100 nM

Quote IC50 reported for CNC(=O)c1cc(-c2cn3nccc3c(N3C[C@@H](C)[C@@](C#N)(C4CC4)C3=O)n2)ccn1 [Example 252, trifluoroacetate] please.
100 to 1000 nM

Quote IC50 reported for C[C@@H]1CN(c2cc(-c3cnn(C)c3)cc3ncsc23)C(=O)[C@]1(C#N)C1CC1 please.
100 to 1000 nM

Quote IC50 reported for C[C@@H]1CN(c2ccnn3cc(-c4cnn([C@H]5C[C@H](C#N)C5)c4)cc23)C(=O)[C@]1(C#N)C1CC1 please.
< 100 nM

Quote IC50 reported for COc1ncc(-c2cn3nccc3c(N3C[C@@H](C)[C@@](C#N)(C4CC4)C3=O)n2)cn1 [Example 240, trifluoroacetate] please.
> 10000 nM

Quote IC50 reported for CC(=O)Nc1cc(-c2cn3nccc3c(N3C[C@@H](C)[C@@](C#N)(C4CC4)C3=O)n2)ccn1 please.
100 to 1000 nM

Quote IC50 reported for C[C@@H]1CN(c2nc(-c3cnn([C@H]4C[C@@](C)(C#N)C4)c3)cn3ncc(F)c23)C(=O)[C@]1(C#N)C1CC1 please.
< 100 nM

* * *

- TARGET_UNDER_TEST: human TYK2 kinase domain (JH1) (Homo sapiens, UniProt P29597)
- Construct: recombinantly generated catalytic kinase (also known as JH1) domain of human JAK1, JAK2, JAK3 and TYK2
- ASSAY_DETAILS: JH1 biochemical assay for TYK2 (ADP-Glo kinase assay, recombinant JH1 catalytic domain, JAK3-974 peptide, 10 μM ATP)
- REPORTED_CONDITIONS: TYK2 JH1, ADP-Glo
pIC50: −log10 of the molar value. Counter-ions that a name gives are not always drawn.
Exercise: for every item that follows, state its recorded pIC50.

Quote pIC50 reported for C[C@@H]1CN(c2ccnc3cc(-c4cnn(C)c4)nn23)C(=O)[C@]1(C#N)C1CC1 please.
< 7.00

Quote pIC50 reported for C[C@@H]1CN(c2nc(-c3ccc(S(C)(=O)=O)nc3)cn3nccc23)C(=O)[C@]1(C#N)C1CC1 [Example 257, trifluoroacetate] please.
7.70 to 8.30

Quote pIC50 reported for Cc1cncc(-c2cn3nccc3c(N3C[C@@H](C)[C@@](C#N)(C4CC4)C3=O)n2)c1 please.
7.70 to 8.30

Quote pIC50 reported for C[C@@H]1CN(c2nc(-c3cnn(-c4ccncc4)c3)cn3nccc23)C(=O)[C@]1(C#N)C1CC1 please.
> 8.30

Quote pIC50 reported for C[C@@H]1CN(c2ccnn3cc(-c4cnn([C@@H]5COCC(F)(F)C5)c4)cc23)C(=O)[C@]1(C#N)C1CC1 (single isomer, unassigned) please.
> 8.30

Quote pIC50 reported for C[C@@H]1CN(c2ncnc3cc(-c4cnn(C)c4)sc23)C(=O)[C@]1(C#N)C1CC1 please.
< 7.00

Quote pIC50 reported for Cc1ccc(-c2cn3nccc3c(N3C[C@@H](C)[C@@](C#N)(C4CC4)C3=O)n2)cn1 [Example 233, trifluoroacetate] please.
> 8.30

Quote pIC50 reported for C[C@@H]1CN(c2nc(-c3cncnc3)cn3nccc23)C(=O)[C@]1(C#N)C1CC1 [Example 265, trifluoroacetate] please.
7.00 to 7.30

Quote pIC50 reported for C[C@@H]1CN(c2nc(-c3cnn(CC(F)F)c3)cc3ncsc23)C(=O)[C@]1(C#N)C1CC1 please.
> 8.30

Quote pIC50 reported for C[C@@H]1CN(c2nc(-c3cnn(C4CC(C#N)C4)c3)cc3ncsc23)C(=O)[C@]1(C#N)C1CC1 (some centres unmarked) please.
> 8.30

Quote pIC50 reported for C[C@@H]1CN(c2n[nH]c3ncc(-c4cnn(C)c4)cc23)C(=O)[C@]1(C#N)C1CC1 please.
< 7.00

Quote pIC50 reported for C[C@@H]1CN(c2nc(-c3ccnc(C(F)(F)F)c3)cn3nccc23)C(=O)[C@]1(C#N)C1CC1 [Example 234, trifluoroacetate] please.
7.70 to 8.30

Quote pIC50 reported for C[C@@H]1CN(c2cc(-c3cnn(C(F)F)c3)cc3ncsc23)C(=O)[C@]1(C#N)C1CC1 please.
> 8.30

Quote pIC50 reported for C[C@@H]1CN(c2nc(-c3ncc[nH]3)cn3nccc23)C(=O)[C@]1(C#N)C1CC1 [Example 247, trifluoroacetate] please.
< 7.00

* * *

- TARGET_UNDER_TEST: human TYK2 kinase domain (JH1) (Homo sapiens)
- Construct: recombinantly generated catalytic kinase (also known as JH1) domain of human JAK1, JAK2, JAK3 and TYK2
- Sequence (P29597 897-1176 limits assumed): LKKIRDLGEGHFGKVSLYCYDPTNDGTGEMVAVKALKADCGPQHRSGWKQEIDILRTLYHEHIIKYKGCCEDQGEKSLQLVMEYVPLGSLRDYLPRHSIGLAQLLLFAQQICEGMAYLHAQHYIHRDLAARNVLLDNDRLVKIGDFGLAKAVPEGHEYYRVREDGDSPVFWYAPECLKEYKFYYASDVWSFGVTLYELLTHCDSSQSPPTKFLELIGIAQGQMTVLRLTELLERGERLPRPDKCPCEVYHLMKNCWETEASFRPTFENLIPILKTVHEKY
- ASSAY_DETAILS: JH1 biochemical assay for TYK2 (ADP-Glo kinase assay, recombinant JH1 catalytic domain, JAK3-974 peptide, 10 μM ATP)
- REPORTED_CONDITIONS: TYK2 JH1, ADP-Glo
Structures can show the parent of a compound that is named as a salt.
RESULT_TYPE: IC50

Quote IC50 reported for C[C@@H]1CN(c2nc(-c3cnn(C(F)F)c3)cc3ncsc23)C(=O)[C@]1(C#N)C1CC1 please.
< 5 nM

Quote IC50 reported for C[C@@H]1CN(c2ccnc3cc(-c4cnn(C)c4)oc23)C(=O)[C@]1(C#N)C1CC1 please.
5 to 20 nM

Quote IC50 reported for C[C@@H]1CN(c2nc(-c3cnc(N(C)C)nc3)cn3nccc23)C(=O)[C@]1(C#N)C1CC1 [Example 264, trifluoroacetate] please.
5 to 20 nM

Quote IC50 reported for Cc1cnn(-c2cc3nccc(N4C[C@@H](C)[C@@](C#N)(C5CC5)C4=O)c3o2)c1 please.
20 to 50 nM

Quote IC50 reported for C[C@@H]1CN(c2ccc3ncc(-c4cnn(C)c4)cn23)C(=O)[C@]1(C#N)C1CC1 please.
> 100 nM

Quote IC50 reported for Cc1cnn(-c2cc3c(N4C[C@@H](C)[C@@](C#N)(C5CC5)C4=O)ccnn3c2)c1 please.
5 to 20 nM

Quote IC50 reported for C[C@@H]1CN(c2ccnn3cc(-c4cnn(CC5(C#N)CC5)c4)cc23)C(=O)[C@]1(C#N)C1CC1 please.
< 5 nM

* * *

Exercise: for every item that follows, state its recorded IC50.
- TARGET_UNDER_TEST: JAK2 kinase activity on STAT5 in TF1 cells (Homo sapiens)
- Sequence (O60674 whole entry): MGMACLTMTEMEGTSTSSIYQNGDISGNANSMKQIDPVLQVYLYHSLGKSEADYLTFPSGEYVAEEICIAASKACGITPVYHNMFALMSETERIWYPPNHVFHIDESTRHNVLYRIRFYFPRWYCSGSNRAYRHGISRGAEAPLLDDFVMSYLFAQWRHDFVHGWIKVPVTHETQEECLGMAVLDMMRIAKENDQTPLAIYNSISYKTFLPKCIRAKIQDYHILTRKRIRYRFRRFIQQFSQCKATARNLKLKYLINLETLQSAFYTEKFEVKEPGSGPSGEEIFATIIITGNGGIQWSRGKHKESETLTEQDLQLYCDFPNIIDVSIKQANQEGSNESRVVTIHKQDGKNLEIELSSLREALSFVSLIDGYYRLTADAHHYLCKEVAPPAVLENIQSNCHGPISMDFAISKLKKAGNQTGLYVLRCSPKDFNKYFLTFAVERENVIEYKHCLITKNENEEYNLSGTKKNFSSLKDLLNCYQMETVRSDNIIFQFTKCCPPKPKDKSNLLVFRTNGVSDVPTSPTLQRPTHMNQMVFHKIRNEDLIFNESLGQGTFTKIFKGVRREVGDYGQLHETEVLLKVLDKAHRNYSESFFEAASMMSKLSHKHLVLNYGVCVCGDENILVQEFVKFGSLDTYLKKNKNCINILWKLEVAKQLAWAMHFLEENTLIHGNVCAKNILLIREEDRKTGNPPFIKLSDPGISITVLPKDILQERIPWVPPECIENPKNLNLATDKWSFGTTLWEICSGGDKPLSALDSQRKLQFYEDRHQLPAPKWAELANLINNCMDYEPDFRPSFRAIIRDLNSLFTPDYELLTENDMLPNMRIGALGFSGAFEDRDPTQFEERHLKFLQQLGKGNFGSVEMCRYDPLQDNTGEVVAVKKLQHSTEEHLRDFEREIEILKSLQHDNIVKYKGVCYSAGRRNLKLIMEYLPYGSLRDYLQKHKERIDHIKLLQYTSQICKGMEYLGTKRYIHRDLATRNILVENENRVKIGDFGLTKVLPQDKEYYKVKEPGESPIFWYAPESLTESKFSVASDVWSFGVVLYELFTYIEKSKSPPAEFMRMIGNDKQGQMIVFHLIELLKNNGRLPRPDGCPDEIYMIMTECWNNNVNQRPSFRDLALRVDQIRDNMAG
- ASSAY_DETAILS: pSTAT5 cell assay (MSD; TF1 cells, 30 ng/mL IL-3 stimulation)
- REPORTED_CONDITIONS: 30 ng/mL IL-3, 15 minutes
Counter-ions that a name gives are not always drawn.

Specify the recorded IC50 for C[C@@H]1CN(c2ccnn3cc(-c4ccc(F)nc4)cc23)C(=O)[C@]1(C#N)C1CC1 [Example 81] , system: JAK2 kinase activity on STAT5 in TF1 cells (Homo sapiens).
> 10 µM

Specify the recorded IC50 for C[C@@H]1CN(c2ccnn3cc(-c4cnn(C56CC(C#N)(C5)C6)c4)cc23)C(=O)[C@]1(C#N)C1CC1 [Example 320] , system: JAK2 kinase activity on STAT5 in TF1 cells (Homo sapiens).
1 to 5 µM

Specify the recorded IC50 for C[C@@H]1CN(c2ccnn3cc(-c4cc5ccccn5n4)cc23)C(=O)[C@]1(C#N)C1CC1 [Example 104, trifluoroacetate] , system: JAK2 kinase activity on STAT5 in TF1 cells (Homo sapiens).
5 to 10 µM

Specify the recorded IC50 for CC(=O)Nc1cncc(-c2cc3c(N4C[C@@H](C)[C@@](C#N)(C5CC5)C4=O)ccnn3c2)c1 [Example 90] , system: JAK2 kinase activity on STAT5 in TF1 cells (Homo sapiens).
> 10 µM

Origin of values: patent US20260297085A1
